Just for reference, paper PMC5540273 is where these values come from.

System: MERTK;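 note: KINOMEscan kinase panel screen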
conditionDetails: concentration: 1 μM,replicates: in singlicate; n = 1
Measured %Inh, listed per entry for reference.
# value in %; strip the unit string

The following compounds have reported results that may help.
[
  {
    "compound": "C[C@@H](Oc1cc(-c2cnn(C3CCNCC3)c2)cnc1N)c1c(Cl)ccc(F)c1Cl",
    "unitTag": "%",
    "%Inh": 88
  },
  {
    "compound": "Cl.Cl.Nc1nc(-c2ccc3c(N)n[nH]c3c2)cc(N2CCCC(NC(=O)c3ccccc3)C2)n1 (centres unmarked) [GSK2286775]",
    "unitTag": "%",
    "%Inh": 0
  },
  {
    "compound": "Cl.Oc1cc(-c2nc(-c3ccccc3)[nH]c2-c2ccncc2)ccc1Cl [SB-386023]",
    "unitTag": "%",
    "%Inh": 0
  }
]

Give me measured %Inh, please, for this compound: Cc1cc2cn[nH]c2cc1-c1cccc2c(N)c(C(N)=O)nnc12
0

Give me measured %Inh, please, for this compound: Cc1occc1-c1nc(N)c(OC[C@@H](N)Cc2c[nH]c3ccccc23)cc1-c1cc2c(C)n[nH]c2cn1 [GSK1660450]
31
